Below, each entry is listed alongside its reported pIC50.
target: HCN2 (Homo sapiens (Human), UniProt Q9UL51); test: HCN2 current assay using the Sophion Qube; assay type: cell-based; settings: Sophion Qube protocol; read-out: SQ HCN2 IC50
Sequence (Q9UL51 whole entry): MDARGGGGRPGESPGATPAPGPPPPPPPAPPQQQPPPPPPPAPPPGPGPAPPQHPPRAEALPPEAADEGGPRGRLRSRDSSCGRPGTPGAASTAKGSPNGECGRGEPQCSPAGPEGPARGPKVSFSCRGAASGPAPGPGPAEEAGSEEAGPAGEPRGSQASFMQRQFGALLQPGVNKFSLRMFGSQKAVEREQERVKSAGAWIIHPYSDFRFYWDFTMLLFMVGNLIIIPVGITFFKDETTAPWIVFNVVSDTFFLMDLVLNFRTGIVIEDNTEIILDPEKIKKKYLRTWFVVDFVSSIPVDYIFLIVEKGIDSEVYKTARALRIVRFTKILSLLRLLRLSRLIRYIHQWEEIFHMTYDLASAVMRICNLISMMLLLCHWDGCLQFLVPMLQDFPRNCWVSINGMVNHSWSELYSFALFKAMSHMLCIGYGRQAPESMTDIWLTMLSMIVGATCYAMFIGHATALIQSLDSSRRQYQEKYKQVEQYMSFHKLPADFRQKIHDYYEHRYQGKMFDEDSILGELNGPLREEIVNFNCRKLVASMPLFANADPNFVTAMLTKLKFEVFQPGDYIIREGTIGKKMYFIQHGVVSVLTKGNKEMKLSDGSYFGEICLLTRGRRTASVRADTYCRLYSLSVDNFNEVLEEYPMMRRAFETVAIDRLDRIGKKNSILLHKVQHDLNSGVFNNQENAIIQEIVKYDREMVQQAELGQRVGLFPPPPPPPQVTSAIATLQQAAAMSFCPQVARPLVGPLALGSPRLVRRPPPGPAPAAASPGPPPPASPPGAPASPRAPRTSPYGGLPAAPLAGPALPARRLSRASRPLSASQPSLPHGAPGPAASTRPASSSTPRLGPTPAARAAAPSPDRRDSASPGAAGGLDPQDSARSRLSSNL
Where a name gives a salt, the structure may show the parent alone.
Note on units: pIC50 is unitless, being -log10 of a concentration expressed in mol/L.

Some entries whose results are on file:
{"columns": ["COMPOUND", "MEASURED RESULT"],
 "data": [
  ["CS(=O)(=O)c1ccc(F)c(C[C@H](N)c2ccccc2-c2noc3cc(C(F)(F)F)ccc23)n1 [Example 10, hydrochloride]", 4.76],
  ["N[C@@H](Cc1nc(Br)ccc1F)c1ccccc1-c1noc2cc(Br)ccc12", 5.70],
  ["Cc1ccc(S(C)(=O)=O)nc1C[C@H](N)c1ccccc1-c1noc2cc(F)ccc12 [Example 24, hydrochloride]", 5.89]
]}

Now consider a different compound.
Q. Value lookup for pIC50; key = N#Cc1ccc2c(-c3ccccc3[C@@H](N)Cc3nc(Br)ccc3F)noc2c1 [Example 17, hydrochloride]
A. 5.24
